Target: T1, IL-18 receptor (IL-18Rα and IL-18Rβ) (UniProt Q13478 19-541; O95256 20-599, limits assumed)
T1 sequence (looked up) 1: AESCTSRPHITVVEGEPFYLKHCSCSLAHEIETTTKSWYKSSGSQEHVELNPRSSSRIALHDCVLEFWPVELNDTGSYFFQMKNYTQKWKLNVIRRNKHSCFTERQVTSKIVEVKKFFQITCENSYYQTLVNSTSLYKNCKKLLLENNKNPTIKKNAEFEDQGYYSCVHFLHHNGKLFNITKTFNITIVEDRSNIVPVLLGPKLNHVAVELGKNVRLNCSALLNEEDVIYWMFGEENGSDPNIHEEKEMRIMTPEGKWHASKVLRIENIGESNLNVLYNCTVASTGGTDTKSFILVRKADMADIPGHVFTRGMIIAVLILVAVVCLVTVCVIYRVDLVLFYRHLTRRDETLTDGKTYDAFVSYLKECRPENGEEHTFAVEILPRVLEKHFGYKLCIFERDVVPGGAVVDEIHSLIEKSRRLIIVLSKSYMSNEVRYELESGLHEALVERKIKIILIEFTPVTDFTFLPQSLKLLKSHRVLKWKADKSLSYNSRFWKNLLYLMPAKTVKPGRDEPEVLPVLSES
T1 sequence (looked up) 2: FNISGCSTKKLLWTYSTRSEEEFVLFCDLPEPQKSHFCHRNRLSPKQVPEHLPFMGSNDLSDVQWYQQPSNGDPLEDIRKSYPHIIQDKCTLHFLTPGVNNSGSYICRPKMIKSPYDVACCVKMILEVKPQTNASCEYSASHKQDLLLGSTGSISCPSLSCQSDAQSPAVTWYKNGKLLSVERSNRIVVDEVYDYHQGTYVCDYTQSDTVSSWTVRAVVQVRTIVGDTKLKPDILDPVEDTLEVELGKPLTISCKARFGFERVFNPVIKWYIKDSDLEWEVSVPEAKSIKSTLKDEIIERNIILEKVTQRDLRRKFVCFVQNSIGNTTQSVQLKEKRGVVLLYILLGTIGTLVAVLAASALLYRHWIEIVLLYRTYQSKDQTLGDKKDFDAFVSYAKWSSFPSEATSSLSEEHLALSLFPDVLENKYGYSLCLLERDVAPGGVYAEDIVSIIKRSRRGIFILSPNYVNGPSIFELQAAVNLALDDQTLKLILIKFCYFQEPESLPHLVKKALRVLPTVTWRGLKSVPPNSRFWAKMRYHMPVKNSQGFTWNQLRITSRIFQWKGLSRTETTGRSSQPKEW
Experiment: cell-based or functional assay
measureName: PBMC IFN gamma EC50 relative to WT-IL18, run 2
Form: value (number only, do not type unit).

hIL18 (G3T, K53S, M60K) - KiH (Fc fusion) YFTKLESKLSVIRNLNDQVLFIDQGNRPLFEDMTDSDMRDNAPRTIFIISMYSDSQPRGKAVTISVKSEKISTLSSENKIISFKEMNPPDNIKDTKSDIIFFQRSVPGHDNKMQFESSSYEGYFLASEKERDLFKLILKKEDELGDRSIMFTVQNED :: 10.7
hIL18 (G3V, E6K, K53A, M60K)- KiH (Fc fusion) YFVKLKSKLSVIRNLNDQVLFIDQGNRPLFEDMTDSDMRDNAPRTIFIISMYADSQPRGKAVTISVKSEKISTLSSENKIISFKEMNPPDNIKDTKSDIIFFQRSVPGHDNKMQFESSSYEGYFLASEKERDLFKLILKKEDELGDRSIMFTVQNED :: 0.03
hIL18 (G3T, K53A, M60K) - KiH (Fc fusion) YFTKLESKLSVIRNLNDQVLFIDQGNRPLFEDMTDSDMRDNAPRTIFIISMYADSQPRGKAVTISVKSEKISTLSSENKIISFKEMNPPDNIKDTKSDIIFFQRSVPGHDNKMQFESSSYEGYFLASEKERDLFKLILKKEDELGDRSIMFTVQNED :: 2.04

Problem: Identify measured PBMC IFN gamma EC50 relative to WT-IL18, run 2 associated with hIL18 (G3V, K53A, M60K) - KiH (Fc fusion) YFVKLESKLSVIRNLNDQVLFIDQGNRPLFEDMTDSDMRDNAPRTIFIISMYADSQPRGKAVTISVKSEKISTLSSENKIISFKEMNPPDNIKDTKSDIIFFQRSVPGHDNKMQFESSSYEGYFLASEKERDLFKLILKKEDELGDRSIMFTVQNED
Solution: 0.71

Problem: Identify measured PBMC IFN gamma EC50 relative to WT-IL18, run 2 associated with hIL18 (G3T, E6K, K53S, M60K) - KiH (Fc fusion) YFTKLKSKLSVIRNLNDQVLFIDQGNRPLFEDMTDSDMRDNAPRTIFIISMYSDSQPRGKAVTISVKSEKISTLSSENKIISFKEMNPPDNIKDTKSDIIFFQRSVPGHDNKMQFESSSYEGYFLASEKERDLFKLILKKEDELGDRSIMFTVQNED
Solution: 1.15

Problem: Identify measured PBMC IFN gamma EC50 relative to WT-IL18, run 2 associated with hIL18 (G3T, E6K, K53A, M60K) - KiH (Fc fusion) YFTKLKSKLSVIRNLNDQVLFIDQGNRPLFEDMTDSDMRDNAPRTIFIISMYADSQPRGKAVTISVKSEKISTLSSENKIISFKEMNPPDNIKDTKSDIIFFQRSVPGHDNKMQFESSSYEGYFLASEKERDLFKLILKKEDELGDRSIMFTVQNED
Solution: 0.13

Problem: Identify measured PBMC IFN gamma EC50 relative to WT-IL18, run 2 associated with hIL18 (G3V, E6K, K53S, M60K) - KiH (Fc fusion) YFVKLKSKLSVIRNLNDQVLFIDQGNRPLFEDMTDSDMRDNAPRTIFIISMYSDSQPRGKAVTISVKSEKISTLSSENKIISFKEMNPPDNIKDTKSDIIFFQRSVPGHDNKMQFESSSYEGYFLASEKERDLFKLILKKEDELGDRSIMFTVQNED
Solution: 0.21

Problem: Identify measured PBMC IFN gamma EC50 relative to WT-IL18, run 2 associated with hIL18 (G3V, K53S, M60K) - KiH (Fc fusion) YFVKLESKLSVIRNLNDQVLFIDQGNRPLFEDMTDSDMRDNAPRTIFIISMYSDSQPRGKAVTISVKSEKISTLSSENKIISFKEMNPPDNIKDTKSDIIFFQRSVPGHDNKMQFESSSYEGYFLASEKERDLFKLILKKEDELGDRSIMFTVQNED
Solution: 5.08
